Target: T1, Fc-CLEC1 labelled with Alexa Fluor 488 (human, Alexa Fluor 488 label (sites not given))
T1 construct: also called Fc-CLEC1-A488; Alexa488-Fc-Clec-1
T1 chain: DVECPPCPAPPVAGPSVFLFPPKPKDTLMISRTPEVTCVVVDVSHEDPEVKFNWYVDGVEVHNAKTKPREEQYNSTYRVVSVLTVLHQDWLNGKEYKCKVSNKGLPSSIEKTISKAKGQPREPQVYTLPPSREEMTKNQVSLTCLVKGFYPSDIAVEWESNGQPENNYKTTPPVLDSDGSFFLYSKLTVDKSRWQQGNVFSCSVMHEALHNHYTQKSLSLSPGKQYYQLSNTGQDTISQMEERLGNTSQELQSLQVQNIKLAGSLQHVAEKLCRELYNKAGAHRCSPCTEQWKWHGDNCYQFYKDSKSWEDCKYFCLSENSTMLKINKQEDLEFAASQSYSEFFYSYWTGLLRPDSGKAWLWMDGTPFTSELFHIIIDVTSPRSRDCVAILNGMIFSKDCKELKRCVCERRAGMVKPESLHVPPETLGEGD
Assay: FACS competition: blocks Fc-CLEC1-A488 (10 nM) binding to CLEC-1 ligand on UV-treated PBMC; read-out Mean
# key: entry, value: IC50
Expressed in µg/mL, but write only the number.

Example binders with recorded IC50:
Could you share which IC50 value was measured for murine anti-hCLEC1 antibody 10F4-H2 (antibody, V domains shown, Mouse hybridoma antibody) VH: QVQLQQSGTELARPGASVKMSCKASGYIFTDYTIHWVKQRPGQGLEWVGYINPSSGYTNYNQKFKAKATLTADKSSSTAYMQLSSLTSEDSAVYYCTPMFRRSYFDYWGQGTTLTVSS VL: DAVMTQTPLSLPVSLGDQASISCRSSQSLENSNGNTYLNWYLQKPGQSPQLLIYRVSNRFSGVLDRFSGSGSGTDFTLKISRVEAEDLGVYFCLQVTHVPYTFGGGTKLEIK ? 2.8

Could you share which IC50 value was measured for murine anti-hCLEC1 antibody 14H9-F3 (antibody, V domains shown, Mouse hybridoma antibody) VH: QVQLKESGPGLVAPSQSLSITCTISGFSLTTYGIHWVRQPPGKGLEWLVVIWSDGSTIYNSALKSRLSISKDNSKSQVFLKMNSLQTDDTAIYYCARHGGYYNYFDYWGQGTTLTVSS VL: DIQMNQSPSSLSASLGDTITITCHASQNINVWLSWYQQKPGNIPKLLIYKASNLHTGVPSRFSGSGSGTTFTLTIDSLQPEDIATYYCQQGQSYWTFGGGTKLEIK ? 3.1

Could you share which IC50 value was measured for murine anti-hCLEC1 antibody 11H11-G11 (antibody, V domains shown, Mouse hybridoma antibody) VH: QIHLVQSGPELKKPGETVKISCKASGYTFTNFGMNWVKQAPGKGLKWMGWINTNTGEPTYADDFKGRFAFSLETSASTAYLQINNLKNEDTATYFCARGAPAWFTYWGQGTLVTVSA VL: DIQMTQSPASLSASVGETVTITCRATENIYSYLAWYQQKQGKSPQFLVYNAKTLAEGMPSRFSGSGSGTQFSLKINILQPEDFGTYYCQHHFGTPLTFGAGTKLELK ? 2.7

Further cases:
Could you share which IC50 value was measured for murine anti-hCLEC1 antibody 15E3-G3 (antibody, V domains shown, Mouse hybridoma antibody) VH: QVQLQQSGPELVKPGASVKMSCKASGFTFTDYVIAWVKVRTGQGLEWIGEIYPGSGSIYYNEKFKGKATLTADKSSNTAYMQLSSLTSEDSAVYFCASSTVVAFDYWGQGTTLTVSS VL: EIVLTQSPTTLAASPGEKIIITCSDSSSISSNYLHWYQQKPGFSPKLLIYGTSNLASGVPARFSGSGSGTTYSLTIGTMEAEDVATYYCQQGSSIPRTFGGGTKLEIK ? 4.5
